# Method description: Cytotoxicity against mock-infected BHK cells assessed as reduction in cell viability after 96 hrs by MTT assay
# Format: cell-based, Mesocricetus auratus
# Protocol conditions: hamster
Assay readout: CC50 at 96 h (µM)
Numbers only, in µM.

For orientation, consider the following solved cases.
# input Entry under review: C(=C\N1CCN(c2ncccn2)CC1)/N=N/c1ccccc1 . Reported CC50 at 96 h?
# output 100

# input Param item = O=[N+]([O-])c1cccc(/N=N\C2=C3CCCCN3CCC2)c1 ; retrieve measured CC50 at 96 h.
# output 87

# input I'd like to know its CC50 at 96 h. The compound in question is Clc1ccc(/N=N/C=C2\CCCN2Cc2ccccc2)cc1
# output 20

// input: 6 compounds below; output: CC50 at 96 h for each
1. CN1CCC/C1=C\N=N\c1ccc(Cl)cc1
2. O=[N+]([O-])c1cc(/N=N\C2=C3CCCCN3CCC2)ccc1Cl
3. Clc1cccc(/N=N\C2=C3CCCCN3CCC2)c1
4. C(/N=N/c1ccccc1)=C1/CCCN1Cc1ccccc1
5. Clc1ccccc1/N=N\C1=C2CCCCN2CCC1
6. Fc1ccc(/N=N\C2=C3CCCCN3CCC2)cc1C(F)(F)F

# output
1: 55; 2: 10; 3: 46; 4: 31; 5: 93; 6: 60

Values compiled from ChEMBL document CHEMBL1144182.
